System: 171881-019-R-J1-PDC tumor spheroids, viability
Experiment: Anticancer human tumor 171881-019-R-J1-PDC patient-derived invasive breast carcinoma cell line growth inhibition [GQUAD]
Conditions: second compound 1 µM; first compound 0.0999 µM; stronger effect = lower value; spheroids with HUVEC and MSC

Compound | viability, T/C [%]
CC[C@@]1(O)C(=O)OCc2c1cc1n(c2=O)Cc2cc3c(CN(C)C)c(O)ccc3nc2-1 + Cc1[nH]c2ccc(F)cc2c1-c1nc2c3cccnc3c3ncccc3c2[nH]1 | 52.8
CCc1c2c(nc3ccc(O)cc13)-c1cc3c(c(=O)n1C2)COC(=O)[C@]3(O)CC + Cc1cnc(CNC(=O)c2c(=O)c3ccc(N4CCCN(C)CC4)nc3n3c2sc2ccccc23)cn1 | 24
Cc1[nH]c2ccccc2c1CCNCc1ccc(/C=C/C(=O)NO)cc1 + Cc1[nH]c2ccc(F)cc2c1-c1nc2c3cccnc3c3ncccc3c2[nH]1 | 20.4

----------
System: 171881-019-R-J1-PDC tumor spheroids, viability
Experiment: Anticancer human tumor 171881-019-R-J1-PDC cell line growth inhibition [GQUAD];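 further: spheroids exposed to compounds for 7 days; 100% = DMSO vehicle control viability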
Details: second compound 10 µM; first compound 10 µM; stronger effect = lower value; spheroids with HUVEC and MSC
Assign labels as follows, please: true for viability, T/C below 20%; false for viability, T/C equal to or exceeding 20%.

Compound | Answer label
CCCS(=O)(=O)Nc1ccc(F)c(C(=O)c2c[nH]c3ncc(-c4ccc(Cl)cc4)cc23)c1F + Cc1cnc(CNC(=O)c2c(=O)c3ccc(N4CCCN(C)CC4)nc3n3c2sc2ccccc23)cn1 | false
O=C(NO)c1cnc(N2CCN(S(=O)(=O)c3ccc4ccccc4c3)CC2)nc1 + CN(C)c1ccc(Nc2c3ccc(NC(=O)CCN4CCCC4)cc3nc3cc(NC(=O)CCN4CCCC4)ccc23)cc1 | true
O=C(c1cc(Cc2n[nH]c(=O)c3ccccc23)ccc1F)N1CCN(C(=O)C2CC2)CC1 + Cc1[nH]c2ccc(F)cc2c1-c1nc2c3cccnc3c3ncccc3c2[nH]1 | false
COc1cc(C2c3cc4c(cc3C(OC3OC5COC(C)OC5C(O)C3O)C3COC(=O)C23)OCO4)cc(OC)c1O (stereo not given) + Cc1[nH]c2ccc(F)cc2c1-c1nc2c3cccnc3c3ncccc3c2[nH]1 | true
CC1COCCN1c1cc(-c2ccnn2C)c2ccnc(-c3ccn[nH]3)c2n1 (stereo not given) + Cc1cnc(CNC(=O)c2c(=O)c3ccc(N4CCCN(C)CC4)nc3n3c2sc2ccccc23)cn1 | true

----------
Tested on: 171881-019-R-J1-PDC tumor spheroids, viability
Assay: Anticancer human tumor 171881-019-R-J1-PDC cell line growth inhibition [GQUAD]; active = viability on the fitted dose curve at most 10% of control; inactive = the rest;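 further: spheroids exposed to compounds for 7 days; 100% = DMSO vehicle control viability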
Conditions: second compound 0.316 µM; first compound 10 µM; spheroids with HUVEC and MSC
Outcomes: 1 (yes) for active, 0 (no) for inactive

Molecule | Answer label
O=c1[nH]cc(F)c(=O)[nH]1 + Cc1cnc(CNC(=O)c2c(=O)c3ccc(N4CCCN(C)CC4)nc3n3c2sc2ccccc23)cn1 | 0 (no)
O=C(NO)c1cnc(N2CCN(S(=O)(=O)c3ccc4ccccc4c3)CC2)nc1 + CN(C)c1ccc(Nc2c3ccc(NC(=O)CCN4CCCC4)cc3nc3cc(NC(=O)CCN4CCCC4)ccc23)cc1 | 1 (yes)
CC(C)(O)C1CCC(Nc2ccc3ncc(-c4cccc(C(F)(F)F)c4)n3n2)CC1 (centres undefined) + CN(C)c1ccc(Nc2c3ccc(NC(=O)CCN4CCCC4)cc3nc3cc(NC(=O)CCN4CCCC4)ccc23)cc1 | 1 (yes)
CC(=O)O[C@H]1C(=O)[C@@]2(C)[C@H]([C@H](OC(=O)c3ccccc3)[C@]3(O)C[C@H](OC(=O)[C@H](O)[C@@H](NC(=O)c4ccccc4)c4ccccc4)C(C)=C1C3(C)C)[C@]1(OC(C)=O)CO[C@@H]1C[C@@H]2O + Cc1[nH]c2ccc(F)cc2c1-c1nc2c3cccnc3c3ncccc3c2[nH]1 | 0 (no)

----------
# key: entry, value: viability, T/C
Test system: 171881-019-R-J1-PDC tumor spheroids, viability
Assay: Anticancer human tumor 171881-019-R-J1-PDC cell line growth inhibition [GQUAD];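 further: spheroids exposed to compounds for 7 days; 100% = DMSO vehicle control viability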
Settings: second compound 10 µM; first compound 10 µM; stronger effect = lower value; spheroids with HUVEC and MSC

Compound | viability, T/C
O=c1[nH]cc(F)c(=O)[nH]1 + Cc1cnc(CNC(=O)c2c(=O)c3ccc(N4CCCN(C)CC4)nc3n3c2sc2ccccc23)cn1 | 54%
C#Cc1c(F)ccc2cc(O)cc(-c3ncc4c(N5CC6CCC(C5)N6)nc(OCC56CCCN5CC(F)C6)nc4c3F)c12 (stereo not drawn) + CN(C)c1ccc(Nc2c3ccc(NC(=O)CCN4CCCC4)cc3nc3cc(NC(=O)CCN4CCCC4)ccc23)cc1 | 0.13%
Cc1cccc(N(C)C(=O)C2C(O)CCN2c2nc(C)cc(C(F)(F)F)c2C#N)c1 (stereo not drawn) + CN(C)c1ccc(Nc2c3ccc(NC(=O)CCN4CCCC4)cc3nc3cc(NC(=O)CCN4CCCC4)ccc23)cc1 | 0.44%

----------
System: 171881-019-R-J1-PDC tumor spheroids, viability
Assay: Anticancer human tumor 171881-019-R-J1-PDC cell line growth inhibition [GQUAD];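 further: spheroids exposed to compounds for 7 days; 100% = DMSO vehicle control viability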
Conditions: second compound 0.316 µM; first compound 0.0316 µM; stronger effect = lower value; spheroids with HUVEC and MSC
Assign labels as follows, please: 1.0 for viability, T/C below 70%; 0.0 for viability, T/C equal to or exceeding 70%.

Compound | Answer label
CC(C)n1c(=O)n(C)c2cnc3cc(F)c(-c4ccc(OCCCN5CCCCC5)nc4)cc3c21 + Cc1[nH]c2ccc(F)cc2c1-c1nc2c3cccnc3c3ncccc3c2[nH]1 | 0.0
CC[C@@]1(O)C(=O)OCc2c1cc1n(c2=O)Cc2cc3c(CN(C)C)c(O)ccc3nc2-1 + Cc1cnc(CNC(=O)c2c(=O)c3ccc(N4CCCN(C)CC4)nc3n3c2sc2ccccc23)cn1 | 1.0
C=CC(=O)N1CCN(c2nc(=O)n(-c3c(C)ccnc3C(C)C)c3nc(-c4c(O)cccc4F)c(F)cc23)C(C)C1 (stereo unspecified) + Cc1cnc(CNC(=O)c2c(=O)c3ccc(N4CCCN(C)CC4)nc3n3c2sc2ccccc23)cn1 | 0.0
C#Cc1c(F)ccc2cc(O)cc(-c3ncc4c(N5CC6CCC(C5)N6)nc(OCC56CCCN5CC(F)C6)nc4c3F)c12 (stereo unspecified) + Cc1[nH]c2ccc(F)cc2c1-c1nc2c3cccnc3c3ncccc3c2[nH]1 | 0.0
CC1COCCN1c1cc(C2(O)CC3CCC(C2)O3)c2cnn(-c3ccn[nH]3)c2n1 (stereo unspecified) + Cc1cnc(CNC(=O)c2c(=O)c3ccc(N4CCCN(C)CC4)nc3n3c2sc2ccccc23)cn1 | 1.0
C=CC(=O)N1CCN(c2nc(=O)n(-c3c(C)ccnc3C(C)C)c3nc(-c4c(O)cccc4F)c(F)cc23)C(C)C1 (stereo unspecified) + Cc1[nH]c2ccc(F)cc2c1-c1nc2c3cccnc3c3ncccc3c2[nH]1 | 0.0
CC1COCCN1c1cc(-c2ccnn2C)c2ccnc(-c3ccn[nH]3)c2n1 (stereo unspecified) + CN(C)c1ccc(Nc2c3ccc(NC(=O)CCN4CCCC4)cc3nc3cc(NC(=O)CCN4CCCC4)ccc23)cc1 | 1.0
CCc1c2c(nc3ccc(O)cc13)-c1cc3c(c(=O)n1C2)COC(=O)[C@]3(O)CC + CN(C)c1ccc(Nc2c3ccc(NC(=O)CCN4CCCC4)cc3nc3cc(NC(=O)CCN4CCCC4)ccc23)cc1 | 1.0
COc1ccc([C@@H](O)c2cc(-c3ncnc4cc(N5CCOCC5)ccc34)c(F)cc2Cl)nn1 + Cc1cnc(CNC(=O)c2c(=O)c3ccc(N4CCCN(C)CC4)nc3n3c2sc2ccccc23)cn1 | 0.0
C=CCn1c(=O)c2cnc(Nc3ccc(N4CCN(C)CC4)cc3)nc2n1-c1cccc(C(C)(C)O)n1 + Cc1[nH]c2ccc(F)cc2c1-c1nc2c3cccnc3c3ncccc3c2[nH]1 | 0.0
CC1COCCN1c1cc(-c2ccnn2C)c2ccnc(-c3ccn[nH]3)c2n1 (stereo unspecified) + Cc1cnc(CNC(=O)c2c(=O)c3ccc(N4CCCN(C)CC4)nc3n3c2sc2ccccc23)cn1 | 1.0
O=C(c1cc(Cc2n[nH]c(=O)c3ccccc23)ccc1F)N1CCN(C(=O)C2CC2)CC1 + CN(C)c1ccc(Nc2c3ccc(NC(=O)CCN4CCCC4)cc3nc3cc(NC(=O)CCN4CCCC4)ccc23)cc1 | 0.0
Cc1cccc(N(C)C(=O)C2C(O)CCN2c2nc(C)cc(C(F)(F)F)c2C#N)c1 (stereo unspecified) + Cc1[nH]c2ccc(F)cc2c1-c1nc2c3cccnc3c3ncccc3c2[nH]1 | 0.0
CC1COCCN1c1cc(C2(O)CC3CCC(C2)O3)c2cnn(-c3ccn[nH]3)c2n1 (stereo unspecified) + CN(C)c1ccc(Nc2c3ccc(NC(=O)CCN4CCCC4)cc3nc3cc(NC(=O)CCN4CCCC4)ccc23)cc1 | 1.0
CC(C)n1c(=O)n(C)c2cnc3cc(F)c(-c4ccc(OCCCN5CCCCC5)nc4)cc3c21 + CN(C)c1ccc(Nc2c3ccc(NC(=O)CCN4CCCC4)cc3nc3cc(NC(=O)CCN4CCCC4)ccc23)cc1 | 0.0
O=C(NO)c1cnc(N2CCN(S(=O)(=O)c3ccc4ccccc4c3)CC2)nc1 + CN(C)c1ccc(Nc2c3ccc(NC(=O)CCN4CCCC4)cc3nc3cc(NC(=O)CCN4CCCC4)ccc23)cc1 | 1.0
CC[C@@]1(O)C(=O)OCc2c1cc1n(c2=O)Cc2cc3c(CN(C)C)c(O)ccc3nc2-1 + Cc1[nH]c2ccc(F)cc2c1-c1nc2c3cccnc3c3ncccc3c2[nH]1 | 0.0
